Reference for the values: ChEMBL document CHEMBL1140181

System: OVCAR-5
Assay: Cytotoxicity against human OVCAR5 cells
Type: functional
Details: read-out: ED50 (the source's name)
measurement label: EC50

• C/C=C(\C)C(=O)O[C@H]1[C@@H]2O[C@H]3[C@H](O[C@H]4[C@H](OC(CCCCC)CCCCCCCCCC(=O)O[C@@H]1[C@H](O[C@H]1O[C@H](C)[C@H](O)[C@@H](O)[C@H]1O)[C@@H](C)O2)O[C@H](C)[C@H](O)[C@H]4O)O[C@H](CO)[C@H](O)[C@H]3O (stereo partly specified) = > 5 µg/mL

====

Tested on: KB
Experiment: Cytotoxicity against human KB cells
Format: functional
Details: read-out: ED50 (the source's name)
measurement label: EC50

• CCCCC[C@H](CCCCCCCCCC(=O)O)O[C@@H]1O[C@H](C)[C@@H](O)[C@H](O)[C@H]1O[C@@H]1O[C@H](CO)[C@@H](O)[C@H](O)[C@H]1O[C@@H]1O[C@@H](C)[C@H](O[C@@H]2O[C@H](C)[C@@H](OC(=O)C(C)C(C)O)[C@H](O)[C@H]2O)[C@@H](O)[C@H]1OC(=O)C(C)CC (some centres undefined) = 2.6 µg/mL
• C/C=C(\C)C(=O)O[C@H]1[C@@H]2O[C@H]3[C@H](O[C@H]4[C@H](OC(CCCCC)CCCCCCCCCC(=O)O[C@@H]1[C@H](O[C@H]1O[C@H](C)[C@H](O)[C@@H](O)[C@H]1O)[C@@H](C)O2)O[C@H](C)[C@H](O)[C@H]4O)O[C@H](CO)[C@H](O)[C@H]3O (some centres undefined) = 2.2 µg/mL
• CCCCCC1CCCCCCCCCC(=O)O[C@H]2[C@@H](OC(=O)CC)[C@H](O[C@H]3[C@H](O[C@H]4[C@H](O1)O[C@H](C)[C@H](O)[C@H]4O)O[C@H](CO)[C@H](O)[C@H]3O)O[C@H](C)[C@H]2O[C@H]1O[C@H](C)[C@H](O)[C@@H](O)[C@H]1O (some centres undefined) = 2.5 µg/mL
• C/C=C(\C)C(=O)O[C@H]1[C@H](O)[C@@H](O)[C@H](O[C@@H]2[C@@H](O)[C@@H](OC(=O)C(C)CC)[C@H](O[C@H]3[C@H](O[C@H]4[C@H](O[C@H](CCCCC)CCCCCCCCCC(=O)O)O[C@H](C)[C@@H](O)[C@@H]4O)O[C@H](CO)[C@@H](O)[C@@H]3O)O[C@H]2C)O[C@@H]1C (some centres undefined) = 2.8 µg/mL
